Test system: CCRIS mutagenicity, Ames/micronucleus/aberration tests
measurement.protocol: CCRIS mutagenicity studies
setup.conditions: Test System: AMES SALMONELLA TYPHIMURIUM; Strain/Indicator: TA98; Metabolic Activation: NONE; Method: PREINCUBATION
Active and inactive are the calls of the source. The rule behind the calls is not given here.
Mark one answer only. Choices: true = active, false = inactive

Q) Hi, sorry to bother you, what did the test record for O=C(Br)CBr ?
A) false

Q) Dear colleague, could you share the recorded outcome for O=C1c2ccccc2-c2cc([N+](=O)[O-])ccc21 when you have a moment?
A) true

Q) // param item: O=P1(N(CCCl)CCCl)NCCCO1 (stereo not drawn) ; yields the recorded call
A) false

Q) Dear all, I need the recorded test outcome for O=C1OC(O)C(C(Cl)Cl)=C1Cl (stereo not drawn) , thank you.
A) true

Q) Dear all, I need the recorded test outcome for CCCCCCCCC1CO1 (stereo not drawn) , thank you.
A) false

Q) // param item: COP(=S)(OC)SCn1nnc2ccccc2c1=O ; yields the recorded call
A) false

Q) GET /call?item= CCc1ccccc1O returns the recorded outcome of this test.
A) false

Q) Please state the recorded outcome for this compound: Cc1ccc(C(=O)Cl)cc1
A) false

Q) Test call, this compound: COc1ccc2c3c1O[C@H]1[C@@H](O)C=C[C@H]4[C@@H](C2)N(C)CC[C@@]341
A) false

Q) // return assay outcome for O=C(Cl)C(Cl)c1ccccc1 (stereo not drawn)
A) true

Q) Write down the call the test reported for this compound. Item: Nc1ccccc1C(=O)OCCc1ccccc1
A) false

Q) Which result was noted for this compound in the test: COc1cc(-c2ccc(N/N=C3\C=C(S(=O)(=O)O)c4ccccc4C3=O)c(OC)c2)ccc1N=Nc1cc(S(=O)(=O)O)c2ccccc2c1N
A) false

Q) Dear colleague, could you share the recorded outcome for O=C1C=C(O)c2ccccc2C1=O when you have a moment?
A) false

====

Test system: CCRIS mutagenicity, Ames/micronucleus/aberration tests
measurement.protocol: CCRIS mutagenicity studies
setup.conditions: Test System: AMES SALMONELLA TYPHIMURIUM; Strain/Indicator: TA100; Metabolic Activation: NONE; Method: STANDARD PLATE
The source made the active and inactive calls. How the calls were made is not given here. Where a SMILES comes first, the peptide text is derived from it. The star is where a group is joined. For = O=C*
Reply using exactly one outcome from 1.0 for active, 0.0 for inactive

Q) Outcome logged for CSCC[C@H](NC=O)C(=O)N[C@@H](Cc1ccccc1)C(=O)O (For-Met-Phe-OH) in this assay:
A) 0.0

Q) Name the outcome recorded for C=CC(=C)CCC=C(C)C in the assay.
A) 0.0

Q) Returns: the outcome recorded for COc1ccc(C=CC(=O)c2ccccc2)cc1 in this assay.
A) 0.0

Q) Entry COC(=O)c1ccc([N+](=O)[O-])c2c(NCCCN(C)C)c3ccccc3nc12 : call = ?
A) 1.0

Q) Tell me the assay call for O=CN(O)c1cccc(Cl)c1 please.
A) 0.0

Q) Per the records of this test, what outcome belongs to O=NN1CSCC1C(=O)O (stereo unspecified) ?
A) 0.0

Q) In this assay, the call recorded for OC(Nc1snc2ccccc12)C(Cl)(Cl)Cl (stereo unspecified) was what?
A) 0.0

Q) // return assay outcome for O=C(NCCCl)Nc1ncc([N+](=O)[O-])s1
A) 1.0

Q) // outcome(item) with item = CN(C(=O)CCl)c1snc2ccccc12
A) 0.0

Q) Please indicate how the test categorized CC1(C)CC[C@]2(C(=O)O)CC[C@]3(C)C(=CC[C@@H]4[C@@]5(C)C[C@H](O)[C@H](O[C@@H]6O[C@H](CO)[C@@H](O)[C@H](O)[C@H]6O)C(C)(C(=O)O)C5CC[C@]43C)[C@H]2C1 (stereo partly specified) .
A) 0.0

Q) Query: recorded result category for N#Cc1cc(I)c(O)c([N+](=O)[O-])c1 in this test
A) 0.0

====

Tested on: CCRIS mutagenicity, Ames/micronucleus/aberration tests
measurement.protocol: CCRIS mutagenicity studies
setup.conditions: Test System: AMES SALMONELLA TYPHIMURIUM; Strain/Indicator: TA98(NR); Metabolic Activation: NONE; Method: STANDARD PLATE
Text: The CCRIS database contains chemical records with carcinogenicity, mutagenicity, tumor promotion, and tumor inhibition test results. It was developed by the National Cancer Institute (NCI). Data are derived from studies cited in primary journals, current awareness tools, NCI reports, and other sources. Test results have been reviewed by experts in carcinogenesis and mutagenesis. CCRIS provides historical information from the years 1985 - 2011. It is no longer updated. […]
Activity calls are given as the source filed them. The rule behind the calls is not given here.
Entry note: the call must match one of active, inactive

Q) Test call for this compound, please: COC(=O)c1cc2c([nH]c3ccc([N+](=O)[O-])cc32)c(-c2ccccc2)n1
A) inactive

Q) Outcome logged for O=[N+]([O-])c1cccc2c1c([N+](=O)[O-])cc1ccccc12 in this assay:
A) active

Q) State the result this test recorded for N#Cc1cccc(/C=C\c2ccc([N+](=O)[O-])cc2)c1 .
A) active

Q) For O=[N+]([O-])c1ccc2c([N+](=O)[O-])cc3ccccc3c2c1 , what call appears in the results of this test?
A) active

Q) Name the outcome recorded for CN(C)CCCNc1c2ccccc2nc2c([N+](=O)[O-])cccc12 in the assay.
A) active

Q) Recorded test outcome, item O=[N+]([O-])c1cc2c3c(c1)CCc1cc([N+](=O)[O-])cc(c1-3)CC2
A) active

Q) Hello, I am checking results. What call was entered for O=C(O)c1ccc([N+](=O)[O-])o1 ?
A) inactive

Q) Tell me the recorded outcome of this test for O=C(Nc1ccccc1)c1csc([N+](=O)[O-])c1 .
A) inactive

====

Test system: CCRIS mutagenicity, Ames/micronucleus/aberration tests
measurement.protocol: CCRIS mutagenicity studies
setup.conditions: Test System: AMES SALMONELLA TYPHIMURIUM; Strain/Indicator: TA102; Metabolic Activation: NONE; Method: PREINCUBATION
Active and inactive are the calls of the source. No rule for the calls is given here.
Your answer must be one of the following: T (active), F (inactive)

Q) GET /call?item= Cc1ncc(CO)c(CO)c1O returns the recorded outcome of this test.
A) F

Q) Called result for CCN(CC)c1ccccc1
A) F

Q) Lab log entry: Cc1cccc2nc3c(ccc4ccccc43)cc12 — outcome as called in the assay?
A) T

Q) Status in this test for CC1=C(O)C(=O)CC1 ?
A) F

Q) What did this assay record as the result for Cc1ccccn1 ?
A) F

Q) Look up the recorded call for Cc1ccc(Cl)cc1 in this test.
A) F

Q) Write down the call the test reported for this molecule. Item: O=C(O)Cc1ccc(O)c(O)c1
A) T

Q) I would be grateful if you could indicate the recorded call for O=C(O)/C=C\C(=O)O .
A) F

Q) Assay outcome for O=c1c2[nH]c3ccccc3c2nnn1/N=C/c1ccc(Cl)cc1 : what was it?
A) F

Q) Can you look up the reported call for O=C(O)c1ccc2c(c1)C(=O)OC2=O for me?
A) F

Q) Which result was noted for this molecule in the test: Cc1nccnc1C
A) F

Q) Give the logged outcome of this assay for the following molecule: O=C1C(Cl)=C(Cl)C(=O)c2ccccc21
A) T

Q) Recorded test outcome, item Cc1ccc2nc3c(ccc4ccccc43)cc2c1
A) T

Q) Give the logged outcome of this assay for the following molecule: CCN(CC)CCCC(C)Nc1cc(OC)cc2cccnc12 (stereo not given)
A) F

Q) // outcome(item) with item = Cc1cccc2cc3ccc4ccccc4c3nc12
A) F

====

System: CCRIS mutagenicity, Ames/micronucleus/aberration tests
measurement.protocol: CCRIS mutagenicity studies
setup.conditions: Test System: AMES SALMONELLA TYPHIMURIUM; Strain/Indicator: TA2637; Metabolic Activation: RAT, LIVER, S-9, PHENOBARBITAL AND 5,6-BENZOFLAVONE; Method: PREINCUBATION
The source made the active and inactive calls. No rule for the calls is given here.
Please answer using one outcome listed in 1 (yes) = active, 0 (no) = inactive

Q) Could you kindly confirm the outcome this assay logged for O=C1C=CC(=O)C(Cl)=C1 ?
A) 0 (no)

Q) State the result this test recorded for O=C1C(Cl)=C(Cl)C(=O)c2ccccc21 .
A) 1 (yes)

Q) Query: recorded result category for CC1=CC(=O)C=CC1=O in this test
A) 1 (yes)

Q) // outcome(item) with item = O=C1C=C(O)c2ccccc2C1=O
A) 0 (no)

Q) Hey, what did the test say about O=C1C=Cc2ccccc2C1=O ?
A) 0 (no)

Q) # outcome recorded in this test, key = O=C1C=CC(=O)c2c(O)ccc(O)c21
A) 1 (yes)

====

Test system: CCRIS mutagenicity, Ames/micronucleus/aberration tests
measurement.protocol: CCRIS mutagenicity studies
setup.conditions: Test System: E. COLI; Strain/Indicator: WP2 UVRA; Metabolic Activation: NONE; Method: STANDARD PLATE
Active and inactive are the calls of the source. No rule for the calls is given here.
Reply using exactly one outcome from YES (active), NO (inactive)

Q) Please let me know the test result on file for CCC1(CC(=O)O)OCCc2c1[nH]c1c(C(C)O)cccc21 (configuration not stated) .
A) NO

Q) What call does the record list for c1cc2ccc3cccc4ccc(c1)c2c34 ?
A) NO

Q) Could you check what this test reported for C[C@H]1[C@H](O)CCC2=CC(=O)[C@]3([C@@]4(CO)CO4)O[C@@H]3[C@@]21C ?
A) YES

Q) // return assay outcome for CNC(=O)C(C)SCCSP(=O)(OC)OC (configuration not stated)
A) YES

Q) Query: recorded result category for C[15NH][15N]=O in this test
A) YES

Q) Lab log entry: c1ccc2c(c1)ccc1ccccc12 — outcome as called in the assay?
A) NO

Q) Record lookup: outcome of this test for Nc1ccc2c(c1)C(=O)c1ccccc1C2=O ?
A) NO

Q) GET /call?item= Nc1ccccc1 returns the recorded outcome of this test.
A) NO

Q) What did this assay record as the result for O=c1nc(NO)ccn1[C@@H]1O[C@H](CO)[C@@H](O)[C@H]1O ?
A) YES

Q) Test call for this compound, please: NCC1CCC(C(=O)c2ccc(CCC(=O)O)cc2)CC1 (configuration not stated)
A) NO

Q) Kindly provide the recorded test outcome for the following compound: FC(F)C(F)(F)F
A) NO

Q) # outcome recorded in this test, key = C[C@@H]1O[C@H](C)[C@@H](O)[C@H](O)[C@@H]1OS(=O)(=O)O
A) NO

Q) Test call for this compound, please: O=P1(N(CCCl)CCCl)NCCCO1 (configuration not stated)
A) NO

Q) Recorded call for NC(N)=S ?
A) NO

Q) Which outcome was entered for the compound O=[N+]([O-])c1cccc2ccccc12 in this test?
A) NO

Q) Which outcome was entered for the compound CCOc1ccc(NC(C)=O)cc1 in this test?
A) NO

Q) Give the logged outcome of this assay for the following compound: CC(=O)N(CC(O)CN(C(C)=O)c1c(I)c(C(=O)NCC(O)CO)c(I)c(C(=O)NCC(O)CO)c1I)c1c(I)c(C(=O)NCC(O)CO)c(I)c(C(=O)NCC(O)CO)c1I (configuration not stated)
A) NO

Q) For this compound, state the assay outcome: CCN(CC)C(=O)Nc1ccc(OCC(O)CNC(C)(C)C)c(C(C)=O)c1 (configuration not stated)
A) NO

Q) So what was the verdict on CNNCc1ccc(C(=O)NC(C)C)cc1 in this test?
A) NO

Q) Give the logged outcome of this assay for the following compound: CN(N=O)C(N)=O
A) YES

Q) Would you mind telling me which call this test gave Brc1ccc(C2CO2)cc1 (configuration not stated) ?
A) YES

Q) Hey, what did the test say about O=[N+]([O-])c1ccc(/C=N\O)o1 ?
A) YES
